# Tested on: MALME-3M melanoma
# Assay Text: NCI-60 one-dose screen, 48 h
# Measurement Context: 10 µM unless noted
This is part of a sample that, as a whole, favours compounds with a hit. Of some 83,000 tested, about 20% had one in any assay. Activity calls are given as the source filed them. How the source made its calls: active means growth percent below 10; inactive means the rest.
Outcome (select one): Y (active), N (inactive)

The examples below pair each entry with its known result.
INSERT INTO measurements (smi, group) VALUES
  ('O=C(Nc1nc2ccc([N+](=O)[O-])cc2s1)Nc1ccccc1F', 'Y'),
  ('Cn1cc(-c2cc3nc(-c4c[nH]c5ccccc45)cc(N)n3n2)c2ccccc21', 'Y'),
  ('Cc1ccc(S(=O)(=O)Nc2ccc(-c3ccc4c(c3)NC(=O)/C4=C\c3ccc[nH]3)cc2)cc1', 'N'),
  ('COc1cc(/C=C/C(=O)c2ccc(S(=O)(=O)NCCNc3nc(N(C)C)nc(N4CCOCC4)n3)cc2)cc(OC)c1OC', 'N');

Lab note: next molecule to report on.
In: Look up the recorded call for O=CNc1cccc(-n2cnc3cc(-c4ccc(O)cc4)ccc32)c1 in this test.
Out: N

Source of measurements: PubChem BioAssay (NCI)
